Below, each entry is listed alongside its reported pIC50.
Tested on: CEM cells HIV-1 protection, formazan growth assay
Assay: NCI AIDS Antiviral Assay
Conditions: measured here: growth of uninfected CEM cells
pIC50: −log10 of the molar value.

{"Compound": "CCc1n[nH]c(=O)n1CCCCCCCCn1c(CC)n[nH]c1=O", "Obs Value": "< 3.70"}
{"Compound": "Cc1nc2ccccc2c(=O)n1NC(=O)c1ccccn1", "Obs Value": "< 3.70"}
{"Compound": "O=c1c2ccc(Cl)cc2nc2n1OCC2", "Obs Value": "< 3.88"}
{"Compound": "NCCCCNCCCNC(=O)c1nc(-c2csc(CCN)n2)sc1Cl", "Obs Value": "< 3.70"}

// query pIC50 value for entry N#CC(/C=C/c1ccccc1)NCCc1ccccc1 (stereo not given)
< 4.98
